Origin of measurements: BindingDB's records for patent US12570675

target of assay: Proteasome subunit beta type-5 (Homo sapiens, UniProt P28074)
Sequence (P28074 whole entry): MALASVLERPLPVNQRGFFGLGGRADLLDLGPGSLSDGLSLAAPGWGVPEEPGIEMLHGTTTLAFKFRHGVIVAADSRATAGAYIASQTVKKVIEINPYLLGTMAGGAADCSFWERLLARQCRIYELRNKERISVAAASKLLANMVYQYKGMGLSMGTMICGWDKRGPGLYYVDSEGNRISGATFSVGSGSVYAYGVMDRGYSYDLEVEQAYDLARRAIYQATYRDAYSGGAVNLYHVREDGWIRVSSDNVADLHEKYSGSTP
experiment notes: Proteasome Activity Inhibition
pIC50: −log10 of the molar value.
Here, each record is paired with measured pIC50 data.
quantity kind: pIC50

[[record]]
compound = "COc1ccc(Cl)cc1-c1cccc(C2=NOC(Cc3ccccc3)(C(=O)N[C@@H](CC(C)C)B(O)O)C2)c1 (stereo partly specified)"
observed_value = "> 6.30"

[[record]]
compound = "CC(C)C[C@H](NC(=O)C1CC(CNc2ccccn2)=NO1)B(O)O (stereo partly specified)"
observed_value = "> 6.60"

[[record]]
compound = "CC(C)C[C@H](NC(=O)C1CC(CNC(=O)C2CCCc3ccccc32)=NO1)B(O)O (stereo partly specified)"
observed_value = "> 7.60"

[[record]]
compound = "CC(C)C[C@H](NC(=O)C1(Cc2ccccc2)CC(CNC(=O)c2cn(C(C)C)c3ccccc23)=NO1)B(O)O (stereo partly specified)"
observed_value = "> 8.00"

[[record]]
compound = "CC(C)C[C@H](NC(=O)C1CC(CNC(=O)C2Cc3ccccc3C2)=NO1)B(O)O (stereo partly specified)"
observed_value = "> 7.30"

[[record]]
compound = "CC[C@H](NC(=O)C1(Cc2ccccc2)CC(CNC(=O)c2ccccc2)=NO1)B(O)O (stereo partly specified)"
observed_value = "> 7.60"

